assayed_system: Aminoacyl tRNA synthase complex-interacting multifunctional protein 2 (Homo sapiens, UniProt Q13155)
Sequence (Q13155 whole entry, one chain of several): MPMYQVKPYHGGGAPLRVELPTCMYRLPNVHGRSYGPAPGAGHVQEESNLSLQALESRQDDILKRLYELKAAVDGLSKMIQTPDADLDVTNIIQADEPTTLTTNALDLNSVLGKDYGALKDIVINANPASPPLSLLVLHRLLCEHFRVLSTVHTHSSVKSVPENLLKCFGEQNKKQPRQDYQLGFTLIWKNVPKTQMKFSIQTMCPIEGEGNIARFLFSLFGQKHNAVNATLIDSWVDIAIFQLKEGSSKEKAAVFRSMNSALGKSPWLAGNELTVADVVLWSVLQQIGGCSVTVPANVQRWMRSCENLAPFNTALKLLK
experiment_description: Inhibition of nanoluciferase-tagged AIMP2 (unknown origin) expressed in human A549 cells measured after 4 hrs by luminescence assay
Assay type: cell-based
measure_name: IC50

# input Look up IC50 of Cc1ccc(S(=O)(=O)N[C@@H](CC(C)C)C(=O)N2CCOCCOCCOCC2)cc1 and report it.
# output > 100 µM

Cited source for all entries: ChEMBL document CHEMBL4354880
